B1: PhoQ; a variant is named by its letters at X, in order, P23837 (parent)
chain: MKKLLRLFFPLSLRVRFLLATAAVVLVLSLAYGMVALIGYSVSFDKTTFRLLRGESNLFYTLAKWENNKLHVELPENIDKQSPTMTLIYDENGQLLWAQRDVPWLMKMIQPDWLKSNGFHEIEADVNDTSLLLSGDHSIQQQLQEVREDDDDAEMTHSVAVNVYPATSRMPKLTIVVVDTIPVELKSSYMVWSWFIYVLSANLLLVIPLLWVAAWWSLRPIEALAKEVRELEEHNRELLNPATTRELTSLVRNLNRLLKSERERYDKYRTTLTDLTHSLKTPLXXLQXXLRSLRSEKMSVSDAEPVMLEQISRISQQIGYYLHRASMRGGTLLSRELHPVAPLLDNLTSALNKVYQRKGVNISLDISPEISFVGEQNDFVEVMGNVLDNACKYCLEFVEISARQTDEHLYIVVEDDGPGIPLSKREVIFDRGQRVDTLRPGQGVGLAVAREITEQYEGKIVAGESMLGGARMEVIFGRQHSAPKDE

Variants of: B1
Procedure Text: enrichment ratio after two sorts for PhoP signalling (ratio (wild type AVST 3.29)); higher = more functional
Test Settings: with PhoP (E. coli)
Whole data set: some 140,000 sequences, median “enrichment ratio after two sorts for PhoP signalling” near 0, cut for the highest 2% near 11. What follows is part of a selection rich in the highest values, with near analogues and random picks from the rest.
Readout: enrichment ratio

- IFDK: ≤ 0.25
- EHWN: ≤ 0.25
- HHWE: ≤ 0.25

IN: Using known records, supply enrichment ratio for ELTP
OUT: ≤ 0.25

IN: Using known records, supply enrichment ratio for WGLI
OUT: 13.6

IN: Using known records, supply enrichment ratio for WGLT
OUT: ≤ 0.25

IN: Using known records, supply enrichment ratio for GHHN
OUT: ≤ 0.25

IN: Using known records, supply enrichment ratio for SVVD
OUT: ≤ 0.25

IN: Using known records, supply enrichment ratio for SQIN
OUT: 12.8

IN: Using known records, supply enrichment ratio for AQTK
OUT: ≤ 0.25
